Cited source: patent USRE47221E1

Listed below: pIC50 values for each entry.
target: Jak3 (Homo sapiens); construct: Jak3 enzyme (aa 811-1103); expressed in SF9 cells as a GST fusion; GST; made in house; host or cells: SF9 insect cells; test: Jak3 enzyme data for selected compounds; format: biochemical
Sequence (P52333 811-1103): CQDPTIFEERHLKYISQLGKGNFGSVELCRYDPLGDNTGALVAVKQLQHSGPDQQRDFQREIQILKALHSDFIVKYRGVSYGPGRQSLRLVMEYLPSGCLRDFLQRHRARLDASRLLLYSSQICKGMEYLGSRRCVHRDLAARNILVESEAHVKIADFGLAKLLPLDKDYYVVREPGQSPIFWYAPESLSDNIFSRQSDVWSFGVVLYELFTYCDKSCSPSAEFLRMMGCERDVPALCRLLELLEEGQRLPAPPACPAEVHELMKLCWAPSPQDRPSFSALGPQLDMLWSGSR
pIC50: −log10 of the molar value.
EXPERIMENTAL_ENDPOINT: pIC50

[[record]]
compound = "C[C@@H]1CCN(C(=O)N2CC(F)C2)C[C@@H]1c1ncc2cnc3[nH]ccc3n12 [J.2.11]"
system_tested = "Jak3 (Homo sapiens)"
reported = "> 7.00"

[[record]]
compound = "CC[C@@H]1C[C@H](NS(=O)(=O)CCn2cncn2)C[C@@H]1c1nnc2cnc3[nH]ccc3n12 [YY.1.2]"
system_tested = "Jak3 (Homo sapiens)"
reported = "< 6.00"

[[record]]
compound = "CC[C@@H]1C[C@H](NS(=O)(=O)N2CC(F)(F)C2)C[C@@H]1c1nnc2cnc3[nH]ccc3n12 [D.1.11]"
system_tested = "Jak3 (Homo sapiens)"
reported = "6.00 to 7.00"

[[record]]
compound = "FC(F)(F)c1nc2cnc3[nH]ccc3c2n1C1CCCCC1 [D.1.52]"
system_tested = "Jak3 (Homo sapiens)"
reported = "6.00 to 7.00"

[[record]]
compound = "CC[C@@H]1C[C@H](NS(=O)(=O)CCC(F)(F)F)C[C@@H]1c1nnc2cnc3[nH]ccc3n12 [D.1.24]"
system_tested = "Jak3 (Homo sapiens)"
reported = "6.00 to 7.00"

[[record]]
compound = "C[C@@H]1CCN(C(=O)C2CCC(F)(F)CC2)C[C@@H]1c1ncc2cnc3[nH]ccc3n12 [H.1.1]"
system_tested = "Jak3 (Homo sapiens)"
reported = "> 7.00"

[[record]]
compound = "CC[C@@H]1C[C@H](NCCS(=O)(=O)N2CCC(F)(F)C2)C[C@@H]1c1nnc2cnc3[nH]ccc3n12 [D.1.62]"
system_tested = "Jak3 (Homo sapiens)"
reported = "< 6.00"

[[record]]
compound = "O=S(=O)(CCC(F)(F)F)N1CCC2CC1CN2c1ncc2cnc3[nH]ccc3n12 (centres unmarked) [D.1.73]"
system_tested = "Jak3 (Homo sapiens)"
reported = "< 6.00"

